experiment: Brain exposure (brain:plasma ratio, Table 24); assay type: in vivo, Rats; settings: rat, brain and plasma, ip, 60 mg/kg; 60 MPK, i.p.; 2 hr; read-out: RATIO: Brain:plasma (Direct)
quantity-kind: Kp at 2 h
Respond numerically, and do not add a unit to the figure.

Documented Kp at 2 h of CS(=O)(=O)Nc1ccc(OC[C@@H](O)CN2CCN(c3ccc(F)c(F)c3)CC2)cc1 [drawing 802] : 0.7

###

experiment: Brain exposure (brain:plasma ratio, Table 24); assay type: in vivo, Rats; settings: rat, brain and plasma, iv, 3 mg/kg; 3 MPK i.v.; avg; read-out: RATIO: Brain:plasma (Direct)
quantity-kind: Kp

Documented Kp of Cc1ccc(N2CCN(C[C@H](O)COc3ccc4[nH]c(=O)oc4c3)CC2)cc1 [drawing 801] : 2.3

Documented Kp of O=C1N(C[C@H](O)COc2ccc(O)cc2)CCN1c1ccc(Cl)cc1 [drawing 804] : 0.59

Documented Kp of Oc1ccc(OC[C@@H](O)CSc2nc3cc(Cl)c(Cl)cc3[nH]2)cc1 [drawing 808] : 0.25

Documented Kp of Oc1ccc(OC[C@@H](O)CN2CCN(c3ccc(Cl)cc3)CC2)cc1 [drawing 800] : 10.2
